- Test system: Saccharomyces cerevisiae;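 also: PSI per variant is the weighted mean of its sequencing read distribution over the sorted stability bins, counting only variants with over 10 reads summed across bins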
- testProtocol: protein stability index of tFT-peptide fusion in deletion strain of DOA10 (PSI (0-1 scale)); higher = more stable (slower turnover)
Recorded protein stability index, one value per entry.
parameter: protein stability index

[
  {
    "residueString": "RSLRVLLPCYFR",
    "parameter": "protein stability index",
    "valueReported": 0.647
  },
  {
    "residueString": "RVTRLFAIYFRI",
    "parameter": "protein stability index",
    "valueReported": 0.409
  },
  {
    "residueString": "RVTRLDAIYFRIC",
    "parameter": "protein stability index",
    "valueReported": 0.103
  },
  {
    "residueString": "RCLRVLLPLYFR",
    "parameter": "protein stability index",
    "valueReported": 0.647
  },
  {
    "residueString": "AWTLPMCPLLLR",
    "parameter": "protein stability index",
    "valueReported": 0.665
  },
  {
    "residueString": "GLYMCSVGCWRR",
    "parameter": "protein stability index",
    "valueReported": 0.662
  },
  {
    "residueString": "ESLRVLLPLYFR",
    "parameter": "protein stability index",
    "valueReported": 0.683
  },
  {
    "residueString": "CLVSLPILLFFRS",
    "parameter": "protein stability index",
    "valueReported": 0.533
  },
  {
    "residueString": "AITLPHCPLLLR",
    "parameter": "protein stability index",
    "valueReported": 0.713
  },
  {
    "residueString": "AKTLPMCPLLLR",
    "parameter": "protein stability index",
    "valueReported": 0.672
  },
  {
    "residueString": "CLVSLGILLFFR",
    "parameter": "protein stability index",
    "valueReported": 0.436
  },
  {
    "residueString": "GLGMCSVGCWFR",
    "parameter": "protein stability index",
    "valueReported": 0.674
  },
  {
    "residueString": "RSLRVLLPLVFR",
    "parameter": "protein stability index",
    "valueReported": 0.676
  },
  {
    "residueString": "CLVSLPILLQFR",
    "parameter": "protein stability index",
    "valueReported": 0.642
  },
  {
    "residueString": "AITLPICPLLLR",
    "parameter": "protein stability index",
    "valueReported": 0.667
  },
  {
    "residueString": "GLYMCSVGEWFR",
    "parameter": "protein stability index",
    "valueReported": 0.686
  },
  {
    "residueString": "AITPPMCPLLLR",
    "parameter": "protein stability index",
    "valueReported": 0.686
  },
  {
    "residueString": "RSLTVLLPLYFR",
    "parameter": "protein stability index",
    "valueReported": 0.662
  },
  {
    "residueString": "AGTLPMCPLLLR",
    "parameter": "protein stability index",
    "valueReported": 0.671
  }
]
